- Test System: UniProtKB Q6QLK5
- Sequence (Q6QLK5 whole entry, the tested form may be a part): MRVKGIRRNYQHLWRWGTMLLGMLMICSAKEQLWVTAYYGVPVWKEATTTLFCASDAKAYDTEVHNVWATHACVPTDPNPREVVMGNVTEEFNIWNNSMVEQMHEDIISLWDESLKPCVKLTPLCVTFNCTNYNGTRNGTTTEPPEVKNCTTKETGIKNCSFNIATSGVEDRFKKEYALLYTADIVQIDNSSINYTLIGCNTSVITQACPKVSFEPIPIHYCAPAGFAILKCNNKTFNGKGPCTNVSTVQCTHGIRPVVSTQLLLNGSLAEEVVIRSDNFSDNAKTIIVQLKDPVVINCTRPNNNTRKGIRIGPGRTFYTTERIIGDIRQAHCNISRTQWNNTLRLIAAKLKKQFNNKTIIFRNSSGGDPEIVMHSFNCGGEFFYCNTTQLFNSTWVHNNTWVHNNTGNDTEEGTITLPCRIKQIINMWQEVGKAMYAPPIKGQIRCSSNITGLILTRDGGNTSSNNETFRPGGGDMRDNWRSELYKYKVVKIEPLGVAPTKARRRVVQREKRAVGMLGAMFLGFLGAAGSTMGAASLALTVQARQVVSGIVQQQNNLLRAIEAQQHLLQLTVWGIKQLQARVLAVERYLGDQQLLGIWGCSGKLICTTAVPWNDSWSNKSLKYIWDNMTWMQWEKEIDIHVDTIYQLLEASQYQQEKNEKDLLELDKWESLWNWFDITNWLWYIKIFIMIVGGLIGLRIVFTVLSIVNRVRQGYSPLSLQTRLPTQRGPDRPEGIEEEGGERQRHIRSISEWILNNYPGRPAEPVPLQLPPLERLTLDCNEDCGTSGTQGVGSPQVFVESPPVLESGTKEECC
- Assay Method Text: inhibitors of HIV fusion peptide binding, primary screen, biochemical, uHTS, fluorescence dequenching (AID 1986)
Calls of active or inactive are those of the source. No stated cut-off is given here; in the data, actives have a measured IC50 and inactives only a lower limit.
Some molecules, each annotated with its measured IC50.

O=C(Nc1ccccc1Cc1ccccc1)c1ccccc1NS(=O)(=O)c1ccc(Cl)s1 ... 17 µM (active)
COc1ccc(-c2nn(-c3ccccc3)cc2/C=C2/SC(=S)N(CCCC(=O)O)C2=O)c(C)c1 ... 20.2 µM (active)
CCc1ccc(NC2=NC(=O)/C(=C/c3cc(Br)c(OCC(=O)O)c(OC)c3)S2)cc1 ... 14.6 µM (active)
O=C(O)c1ccccc1N=Nc1c(O)[nH]c2ccc([N+](=O)[O-])cc12 ... 23.3 µM (active)

Let us move to another entry and its IC50.
The observed IC50 for CCS(=O)(=O)C1=NN2C(=N)/C(=C\c3ccc(OS(=O)(=O)c4ccccc4)c(OC)c3)C(=O)N=C2S1 when tested with UniProtKB Q6QLK5 stands at 17.8 µM (active)
